System: E. coli AB1932-1
Experiment: In vitro antibacterial activity, MIC (modified Autotiter method)
Type: cell-based, Escherichia coli
Details: Escherichia coli, AB19321, 20 h, 18-20 hours at 37° C.; read-out: MIC E. coli AB1932-1
endpoint: MIC (µg/mL)
Give bare numbers, in µg/mL.

Example cases with answers are listed next.
Clc1ccc(Nc2cc[n+](CCCCC[n+]3ccc(Nc4ccc(Cl)cc4)cc3)cc2)cc1 = 31.3
CCCCC(CC)CNc1cc[n+](CCCCCC[n+]2ccc(NCC(CC)CCCC)cc2)cc1 (centres unmarked) = 1.95
CCCCCCCCCCNc1cc[n+](CCCCCCCCCC[n+]2ccc(NCCCCCCCCCC)cc2)cc1 = 15.6
Fc1ccc(Nc2cc[n+](CCCCCC[n+]3ccc(Nc4ccc(F)cc4)cc3)cc2)cc1 [Example 83B] = 15.6
CCCCCCCNc1cc[n+](CCCCCCCCCC[n+]2ccc(NCCCCCCC)cc2)cc1 = 0.75
CCCCCCCCCNc1cc[n+](CCCCCCCCC[n+]2ccc(NCCCCCCCCC)cc2)cc1 = 3.9
Clc1ccc(Nc2cc[n+](CCCCCC[n+]3ccc(Nc4ccc(Cl)cc4)cc3)cc2)cc1 [Example 77B] = 3.9
CCCCCCNc1cc[n+](CCCCCCCCC[n+]2ccc(NCCCCCC)cc2)cc1 = 1.95

Lab note: each compound below needs its MIC filled in.
1. CCCCCCCCNc1cc[n+](CCCCCCC[n+]2ccc(NCCCCCCCC)cc2)cc1
2. CCCCCCNc1cc[n+](CCCCCCCC[n+]2ccc(NCCCCCC)cc2)cc1
3. CCCCCCCCCNc1cc[n+](CCCCCCCCCCCC[n+]2ccc(NCCCCCCCCC)cc2)cc1
4. CCCCC(CC)CNc1cc[n+](CCCCCCCC[n+]2ccc(NCC(CC)CCCC)cc2)cc1 (centres unmarked)
5. CCCCC(CC)CNc1cc[n+](CCCCC[n+]2ccc(NCC(CC)CCCC)cc2)cc1 (centres unmarked)
6. c1c[n+](CCCCCCCCCC[n+]2ccc(NC3CCCCC3)cc2)ccc1NC1CCCCC1

1: 1; 2: 1.95; 3: 7.8; 4: 0.98; 5: 7.8; 6: 7.8

* * *

Tested on: young adult male Swiss-Webster strain albino mice
Assay: Acute oral toxicity (ALD50)
Type: in vivo
Details: 500 mg/kg oral, suspension in 1% G.T.
For each record, write down the corresponding Mortality 7 Days.

For each listed entry, give its Mortality 7 Days.
1. CCCCCCCNc1cc[n+](CCCCCCCCC[n+]2ccc(NCCCCCCC)cc2)cc1
2. CCCCC(CC)CNc1cc[n+](CCCCCCCCCCCC[n+]2ccc(NCC(CC)CCCC)cc2)cc1 (stereo not drawn) [Example 41C]
3. CCCCCCCCNc1cc[n+](CCCCCCCC[n+]2ccc(NCCCCCCCC)cc2)cc1

["1/3", "0/3", "1/3"]

* * *

Would you kindly list MIC for each of these compounds?
System: T. menta. 9129
Assay: In vitro antifungal activity, MIC (modified Autotiter method)
Format: cell-based, Trichophyton mentagrophytes
Settings: Trichophyton mentagrophytes, 20 h, 18-20 hours at 37° C.; read-out: MIC T. menta. 9129
One number for each entry, in µg/mL.

Field: MIC. Fill in for each record below.
1. Fc1ccc(Nc2cc[n+](CCCCCC[n+]3ccc(Nc4ccc(F)cc4)cc3)cc2)cc1 [Example 83B]
2. CCCCCCNc1cc[n+](CCCCCCCCCC[n+]2ccc(NCCCCCC)cc2)cc1
3. CCCCC(CC)CNc1cc[n+](CCCCCCCC[n+]2ccc(NCC(CC)CCCC)cc2)cc1 (stereo not drawn)
4. Nc1cc[n+](CCCCCCCCC[n+]2ccc(N)cc2)cc1 [VII, reference compound]

[31.3, 1.95, 1.95, 15.6]

Need MIC for each of these compounds.
1. CCCCCCCCNc1cc[n+](CCCCCCCCCCCC[n+]2ccc(NCCCCCCCC)cc2)cc1
2. CCCCCCCCCCNc1cc[n+](CCCCCCCCCC[n+]2ccc(NCCCCCCCCCC)cc2)cc1

1. 1
2. 3.9
